The values you see were collected from paper PMC9226319.

assayed_system: purified human TTR (Homo sapiens, UniProt P02766)
experiment_description: Fluorescence polarization (FP) binding assay, ligands to TTR in buffer
experimental_setup: log [nM] inhibitor 3.398
% Fluorescence polarization (mean) overview
endpoint_name: % Fluorescence polarization (mean) (%)

INSERT INTO results (compound_structure_string, assayed_system, endpoint_name, recorded_number) VALUES
  ('C=CCN1CC[C@]23c4c5ccc(O)c4O[C@H]2[C@@H](OCc2cn(CCNCCCCCCOc4cc(OCCCc6c(C)n[nH]c6C)cc(C(=O)O)c4)nn2)CC[C@@]3(O)[C@H]1C5', 'purified human TTR (Homo sapiens, UniProt P02766)', '% Fluorescence polarization (mean)', 38.835),
  ('C=CCN1CC[C@]23c4c5ccc(O)c4O[C@H]2[C@@H](OCc2cn(CCOCCOCCNCCCCCCOc4cc(OCCCc6c(C)n[nH]c6C)cc(C(=O)O)c4)nn2)CC[C@@]3(O)[C@H]1C5', 'purified human TTR (Homo sapiens, UniProt P02766)', '% Fluorescence polarization (mean)', 50.120),
  ('Cc1n[nH]c(C)c1CCCOc1cc(OCCCCCCN)cc(C(=O)O)c1', 'purified human TTR (Homo sapiens, UniProt P02766)', '% Fluorescence polarization (mean)', 5.680),
  ('COc1ccc2c3c1O[C@H]1[C@@H](OCc4cn(CCNCCCCCCOc5cc(OCCCc6c(C)n[nH]c6C)cc(C(=O)O)c5)nn4)CC[C@@]4(O)[C@@H](C2)N(C)CC[C@]314', 'purified human TTR (Homo sapiens, UniProt P02766)', '% Fluorescence polarization (mean)', 48.160);

====

pKi reference
assayed_system: human mu-opioid receptors (Homo sapiens)
Sequence (P35372 whole entry): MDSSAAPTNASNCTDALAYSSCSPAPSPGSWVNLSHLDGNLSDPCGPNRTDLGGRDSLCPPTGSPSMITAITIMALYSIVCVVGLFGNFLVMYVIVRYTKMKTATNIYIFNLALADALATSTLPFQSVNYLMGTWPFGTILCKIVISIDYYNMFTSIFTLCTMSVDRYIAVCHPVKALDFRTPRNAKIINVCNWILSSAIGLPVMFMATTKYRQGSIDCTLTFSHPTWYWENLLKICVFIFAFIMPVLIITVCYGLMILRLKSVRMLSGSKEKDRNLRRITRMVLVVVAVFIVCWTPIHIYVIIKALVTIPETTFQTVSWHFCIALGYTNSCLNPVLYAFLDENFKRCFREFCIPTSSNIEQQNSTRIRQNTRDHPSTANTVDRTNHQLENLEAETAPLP
experiment_description: biochemical
Assay type: binding
experimental_setup: binding affinity to mu-opioid receptor (Ki) in the presence of TTR
pKi: −log10 of the molar value.
endpoint_name: pKi

INSERT INTO results (molecule, assayed_system, recorded_number) VALUES
  ('C=CCN1CC[C@]23c4c5ccc(O)c4O[C@H]2[C@@H](OCc2cn(CCOCCOCCNCCCCCCOc4cc(OCCCc6c(C)n[nH]c6C)cc(C(=O)O)c4)nn2)CC[C@@]3(O)[C@H]1C5 [AG10-L1-Nal]', 'human mu-opioid receptors (Homo sapiens)', 8.13),
  ('C=CCN1CC[C@]23c4c5ccc(O)c4O[C@H]2[C@@H](OCc2cn(CCNCCCCCCOc4cc(OCCCc6c(C)n[nH]c6C)cc(C(=O)O)c4)nn2)CC[C@@]3(O)[C@H]1C5 [AG10-L2-Nal]', 'human mu-opioid receptors (Homo sapiens)', 8.89);

====

Measured % Fluorescence polarization (mean) accompanies every entry in the list below.
assayed_system: purified human TTR (Homo sapiens)
experiment_description: Fluorescence polarization (FP) binding assay, ligands to TTR in buffer
experimental_setup: log [nM] inhibitor 1.291
endpoint_name: % Fluorescence polarization (mean)

INSERT INTO assay_data (compound, assayed_system, result) VALUES
  ('C=CCN1CC[C@]23c4c5ccc(O)c4O[C@H]2[C@@H](OCc2cn(CCNCCCCCCOc4cc(OCCCc6c(C)n[nH]c6C)cc(C(=O)O)c4)nn2)CC[C@@]3(O)[C@H]1C5 [AG10-L2-Nal]', 'purified human TTR (Homo sapiens)', '106.646%'),
  ('Cc1n[nH]c(C)c1CCCOc1cc(OCCCCCCN)cc(C(=O)O)c1 [Compound 1]', 'purified human TTR (Homo sapiens)', '100.180%'),
  ('C=CCN1CC[C@]23c4c5ccc(O)c4O[C@H]2[C@@H](OCc2cn(CCOCCOCCNCCCCCCOc4cc(OCCCc6c(C)n[nH]c6C)cc(C(=O)O)c4)nn2)CC[C@@]3(O)[C@H]1C5 [AG10-L1-Nal]', 'purified human TTR (Homo sapiens)', '101.730%'),
  ('COc1ccc2c3c1O[C@H]1[C@@H](OCc4cn(CCNCCCCCCOc5cc(OCCCc6c(C)n[nH]c6C)cc(C(=O)O)c5)nn4)CC[C@@]4(O)[C@@H](C2)N(C)CC[C@]314 [AG10-L2-Oxy]', 'purified human TTR (Homo sapiens)', '102.820%');
